- System: K-562 leukemia
- Method Description: NCI tumour cell line growth inhibition, 48 h; in the data active = GI50 below about 0.43 µM; inactive = the rest
# output must be one of active, inactive

Record request — test call for NC(N)=N/N=C(/c1ccccc1)c1ccccc1F
inactive

# repeat for COc1cc(N(CCC#N)CCC#N)ccc1/C(N=Nc1ccc(C(=O)O)cc1)=N/NC(=O)c1cc(Br)ccc1O
inactive

# repeat for CCCCCCCCCCCCOC1C(C(CC(=O)N2CCN(Cc3ccc4c(c3)OCO4)CC2)NS(=O)(=O)c2cc(Cl)cc(Cl)c2)OC2OC(C)(C)OC21 (configuration not stated)
inactive

# repeat for COc1c(O)c2c3c(c1OC)-c1ccccc1CC3N(S(=O)(=O)c1ccc(C)cc1)CC2 (configuration not stated)
active

# repeat for O=C1CCS/C(=N/S(=O)(=O)c2ccc(N3N=C4c5ccccc5CC4C3c3cccs3)cc2)N1Cc1ccccc1 (configuration not stated)
inactive

# repeat for COc1cc2cc3c(c(O)c2c(O)c1-c1c(OC)cc2cc4c(c(O)c2c1O)C(=O)O[C@H](C)C4)C(=O)O[C@H](C)C3
inactive

# repeat for COC(=O)[C@H](Cc1cn(C)cn1)NC(=O)[C@@H](NC(=O)Nc1cc(C(F)(F)F)cc(C(F)(F)F)c1)C(C)C
inactive

---

- System: BT-549 breast
- Method Description: NCI tumour cell line growth inhibition, 48 h
Where a SMILES comes first, the peptide text is derived from it. The star is where a group is joined. Cbz = O=C(OCc1ccccc1)*; Boc = CC(C)(C)OC(=O)*; OSu = O=C1CCC(=O)N1O*; Bn = c1ccc(C*)cc1
Could you please report measured TGI for the items listed next?
Give a bare numeral; the unit µM is implied.

Name the reported TGI value associated with the molecule N/C(=N\C(N)=N\c1nc2ccccc2s1)c1cnccn1
96

# repeat for COc1ccc(/C=C/C(C)=N/OCC(=O)Nc2ccc(Cl)cc2)cc1
14.4

# repeat for COc1ccc(N=Nc2c(N)nn3c(SC)c(C#N)c(N)nc23)cc1
49.6

# repeat for N#Cc1c(N)nc(Sc2ccccc2N)c(C#N)c1-c1ccccc1
95.9

# repeat for c1cncc(C2ONC3=NCCN32)c1 (stereo unspecified)
70

# repeat for CC(C)(CN1CCCCC1)C(=O)CC(SCCS(=O)(=O)O)c1ccc(Cl)cc1 (stereo unspecified)
22.7

# repeat for O=C(c1ccccc1)C(Br)C(Br)c1ccccc1 (stereo unspecified)
25.6

# repeat for NC(N)=N/N=C/c1c(-c2ccc(Cl)c([N+](=O)[O-])c2)nc2sc3ccccc3n12
2.12

# repeat for OCCCCC#Cc1ccccc1C#Cc1ccc(C(F)(F)F)cc1
35.1

# repeat for COC(=O)c1ccc2[nH]c(O)c(C(=Nc3ccc(N(C)C(=O)CN4CCN(C)CC4)cc3)c3ccccc3)c2c1
3.28

# repeat for CCOc1ccc(Nc2nc(-c3c(C)nc4ncccn34)cs2)cc1
14.9

# repeat for Cc1ccc(NCCN(C)C)c2c(=O)c3cc(O)ccc3sc12
20.3

# repeat for CC(C)(C)OC(=O)NC(Cc1ccc(OCc2ccccc2)cc1)C(=O)NC(CCCCNC(=O)OCc1ccccc1)C(=O)NC(CCCCNC(=O)OCc1ccccc1)C(=O)ON1C(=O)CCC1=O (stereo unspecified) (Boc-Tyr(Bn)-Lys(Cbz)-Lys(Cbz)-OSu; configuration not given here)
33.2

---

- System: 786-0 renal
- Method Description: NCI tumour cell line growth inhibition, 48 h; in the data active = GI50 below about 0.43 µM; inactive = the rest
# output must be one of 1.0 = active, 0.0 = inactive

Record request — test call for OCCCCC#Cc1ccccc1C#Cc1ccc(C(F)(F)F)cc1
0.0

# repeat for COc1ccc(/C=C/C(C)=N/OCC(=O)Nc2ccc(Cl)cc2)cc1
0.0

# repeat for COc1ccc(-c2cc(-c3ccccc3)nc(NCCNc3ccnc4cc(Cl)ccc34)n2)cc1
0.0

# repeat for Fc1ccc(-c2nn3c(COc4ccc(Cl)cc4)nnc3s2)cc1Oc1ccccc1
0.0

# repeat for COc1cc(OC)cc(-c2ccc(-c3ccc(C(=N)N)cn3)s2)c1
0.0

# repeat for C=C1CC/C=C(\C)CC[C@H](C(=C)C)[C@@H](O)/C=C(/CO)CCC1O (some centres undefined)
0.0

# repeat for CNCc1ccc(-c2[nH]c3cc(F)cc4c3c2CCNC4=O)cc1
0.0

# repeat for C=CCN=C(N/N=C/c1ccc([N+](=O)[O-])o1)NS(=O)(=O)c1cc(C(=O)Nc2ccccc2)c(Cl)cc1SCC(N)=O
0.0

# repeat for O=C(C(=O)c1cc(Br)ccc1O)c1cc(Br)ccc1O
0.0

# repeat for COC(=O)c1ccc2[nH]c(O)c(C(=Nc3ccc(N(C)C(=O)CN4CCN(C)CC4)cc3)c3ccccc3)c2c1
0.0

# repeat for Oc1ccccc1C=Nc1nc(OCc2ccccc2)nc2[nH]ncc12
0.0

# repeat for OCC#Cc1ccccc1C#Cc1ccc(C#Cc2ccccc2)cc1
0.0

# repeat for CC1OC(OC2C(O[C@H]3CC[C@@]4(C)C(=CC[C@H]5[C@@H]6C[C@@H]7O[C@]8(CC[C@@H](C)CO8)[C@@H](C)[C@@H]7[C@@]6(C)CC[C@@H]54)C3)OC(CO)C(OC3OC(CO)C(O)C3O)C2O)C(O)C(O)C1O (some centres undefined)
1.0

# repeat for Nc1ncc(C2[C@H](CNC(=O)c3cc(Br)c[nH]3)C(CNC(=O)c3cc(Br)c[nH]3)[C@@H]2c2cnc(N)[nH]2)[nH]1 (some centres undefined)
0.0
